Tested on: gram negative bacteria
protocol-summary: In vitro anti-bacterial activity assay (broth dilution MIC), gram negative bacteria
Assay type: cell-based, E. coli
measurement-parameters: Escherichia coli, ATCC25922, 18 h, E. coli ATCC 25922; read-out: Median MIC's G− E. coli ATCC 25922
readout-kind: MIC
Your reply should be a number followed by the unit it is expressed in.

Worked examples follow.
Form: molecule = CN(Cc1cccnc1)Cc1cccc(-c2ccc(O)c3c2C[C@H]2C[C@H]4[C@H](N(C)C)C(O)=C(C(N)=O)C(=O)[C@@]4(O)C(O)=C2C3=O)c1 [BJ] ; MIC = 16 µg/mL

Form: molecule = COCC(=O)c1ccc(O)c2c1C[C@H]1C[C@H]3[C@H](N(C)C)C(O)=C(C(N)=O)C(=O)[C@@]3(O)C(O)=C1C2=O [BW] ; MIC = 0.5 µg/mL

Form: molecule = COCCNC(=O)c1ccc(-c2ccc(O)c3c2C[C@H]2C[C@H]4[C@H](N(C)C)C(O)=C(C(N)=O)C(=O)[C@@]4(O)C(O)=C2C3=O)o1 [DF] ; MIC = 16 µg/mL

Form: molecule = CN(C)CCCCNC(=O)c1cccc(-c2ccc(O)c3c2C[C@H]2C[C@H]4[C@H](N(C)C)C(O)=C(C(N)=O)C(=O)[C@@]4(O)C(O)=C2C3=O)c1 [CL] ; MIC = 64 µg/mL

***
Form: molecule = CN(C)[C@H]1C(O)=C(C(N)=O)C(=O)[C@@]2(O)C(O)=C3C(=O)c4c(O)ccc(-c5cccc(CCCN6CCCCC6)c5)c4C[C@H]3C[C@@H]12 [BN] ; MIC = 16 µg/mL

Form: molecule = CN(C)[C@H]1C(O)=C(C(N)=O)C(=O)[C@@]2(O)C(O)=C3C(=O)c4c(O)ccc(-c5cccc(C(N)=O)c5)c4C[C@H]3C[C@@H]12 (stereo in doubt) [B] ; MIC = 64 µg/mL

* * *

Listed below: log10 of MIC values for each entry.
Test system: gram positive bacteria
protocol-summary: In vitro anti-bacterial activity assay (broth dilution MIC), gram positive bacteria
Assay type: cell-based, S. aureus
measurement-parameters: Staphylococcus aureus, 18 h, S. aureus MRSA5; read-out: Median MIC's G+ S. aureus MRSA5
Reminder: these figures are log10 of reported MIC, in mg/L before transformation.

Worked examples follow.
Form: molecule = CN(C)CCNC(=O)c1cccc(-c2cc(N(C)C)c3c(c2O)C(=O)C2=C(O)[C@]4(O)C(=O)C(C(N)=O)=C(O)[C@@H](N(C)C)[C@@H]4C[C@@H]2C3)c1 ; log10 of MIC = 1.81

Form: molecule = CN(C)CCCN(C)Cc1cccc(-c2ccc(O)c3c2C[C@H]2C[C@H]4[C@H](N(C)C)C(O)=C(C(N)=O)C(=O)[C@@]4(O)C(O)=C2C3=O)c1 ; log10 of MIC = 1.20

***
Form: molecule = CN(C)[C@@H]1C(O)=C(C(N)=O)C(=O)[C@@]2(O)C(O)=C3C(=O)c4c(O)ccc(C(=O)CNCc5ccccn5)c4C[C@H]3C[C@@H]12 ; log10 of MIC = 1.51

Form: molecule = C=CCNCC(=O)c1ccc(O)c2c1C[C@H]1C[C@H]3[C@H](N(C)C)C(O)=C(C(N)=O)C(=O)[C@@]3(O)C(O)=C1C2=O ; log10 of MIC = 1.51

Form: molecule = CN(C)CC(=O)Nc1ccc(-c2ccc(O)c3c2C[C@H]2C[C@H]4[C@H](N(C)C)C(O)=C(C(N)=O)C(=O)[C@@]4(O)C(O)=C2C3=O)cc1 ; log10 of MIC = 0.30

Form: molecule = CN(C)[C@@H]1C(O)=C(C(N)=O)C(=O)[C@@]2(O)C(O)=C3C(=O)c4c(O)ccc(C(=O)CN5CCN(C6CCCCC6)CC5)c4C[C@H]3C[C@@H]12 ; log10 of MIC = 0.00
